Values were extracted from paper PMC8507746.

test: Drug distribution to brain and liver in mice; type: in vivo, Swiss Albino mice; details: male, Swiss Albino, mouse, liver/plasma, ip, 10 mg/kg; i.p. administration, 4h; ng/g normalized against ng/mL; read-out: LIVER/PLASMA
RESULT_TYPE: Kp at 4 h
Respond using a number only.

Q: Read off the recorded Kp at 4 h for `CCCCc1cn(-c2ccc(NC(=O)Nc3ccccc3C(F)(F)F)cc2)nn1`
Ans: 3.75

---

assay: Cell viability / cytotoxicity assay (cell counting); format: cell-based; settings: human, MCF10A control cells
RESULT_TYPE: IC50 at 72 h (µM)
Kindly provide the numeric value in µM only, without the unit symbol.

Q: Read off the recorded IC50 at 72 h for `CCCCc1cn(-c2ccc(NC(=O)Nc3ccccc3C(F)(F)F)cc2)nn1`
Ans: 28.7
